Tested on: SARS-CoV-2
Assay: Antiviral assay (viral RNA in supernatant by qRT-PCR)
Format: cell-based, SARS-CoV-2 (WIV-04)
Conditions: Severe acute respiratory syndrome coronavirus 2, Vero C1008; read-out: EC50
pEC50: −log10 of the molar value.
Rule: pEC50 under 7 gives N, otherwise Y.

[
  {
    "compoundSmiles": "CC(=O)O[C@H]1[C@H]2O[C@]23[C@@H]2CC[C@@H]4C[C@@H](O)CC[C@]4(C)[C@H]2CC[C@]3(C)[C@H]1c1ccc(=O)oc1",
    "assignedClass": "Y"
  },
  {
    "compoundSmiles": "COc1ccc(C[C@@H]2c3cc(Oc4cc(C[C@@H]5c6cc(O)c(OC)cc6CCN5C)ccc4O)c(OC)cc3CCN2C)cc1",
    "assignedClass": "N"
  },
  {
    "compoundSmiles": "COc1ccc(C(=O)O[C@H]2CC[C@@]3(C)[C@@H]4CC[C@H]5[C@]6(O)C[C@H](O)[C@@]7(O)[C@@H](CN8C[C@@H](C)CC[C@H]8[C@@]7(C)O)[C@]6(O)C[C@@]53O[C@]24O)cc1OC",
    "assignedClass": "N"
  },
  {
    "compoundSmiles": "C=C1C(=O)O[C@@H]2C[C@@]3(C)CCCC(=C)[C@@H]3C[C@H]12",
    "assignedClass": "N"
  }
]
